Target: DNA repair nuclease/redox regulator APEX1 (Homo sapiens) (UniProt P27695)
Sequence (P27695 whole entry, looked up): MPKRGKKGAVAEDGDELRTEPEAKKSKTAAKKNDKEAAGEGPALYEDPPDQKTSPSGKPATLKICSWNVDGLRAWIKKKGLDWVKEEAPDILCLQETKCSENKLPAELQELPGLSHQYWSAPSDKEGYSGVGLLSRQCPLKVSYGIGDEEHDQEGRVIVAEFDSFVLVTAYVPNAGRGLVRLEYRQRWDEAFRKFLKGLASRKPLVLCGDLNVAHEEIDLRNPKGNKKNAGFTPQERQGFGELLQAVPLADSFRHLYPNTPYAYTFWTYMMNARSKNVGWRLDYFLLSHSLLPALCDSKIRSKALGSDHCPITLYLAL
Assay: qHTS Assay for Inhibitors of the Human Apurinic/apyrimidinic Endonuclease 1 (APE1); note: nearly all actives have a fitted effect of over 55% in size
Conditions: recombinant APE1, TAMRA/BHQ-2 abasic DNA cleavage fluorescence
In all, about 350,000 compounds went through this assay and about 1,200 (0.34%) were called active. Not shown: some 3% with an inconclusive outcome. Calls come from the whole dose curve; as a rule, active = well fitted inhibition curve with a large enough effect; inconclusive = small, poorly fitted or top-dose-only effect; inactive = no such curve, though single readings can be large or run the other way. The entries come from a sample that favours actives as a whole.
The categories you may choose from are active, inactive

Use the examples below as a reference point.
INSERT INTO assay_data (compound, label_value) VALUES
  ('COc1ccc2[nH]c(C(=O)N3CCN(C)CC3)c(C)c2c1', 'inactive'),
  ('Cc1ccc(N=C2NC(=O)/C(=C/C=C/c3ccco3)S2)cc1C', 'active'),
  ('COc1c(O)cc2oc(-c3ccc(O)c(O)c3)cc(=O)c2c1O', 'active'),
  ('CC1(C)C=CC(=O)[C@]2(C)C1CC(=O)[C@]1(C)C2CC[C@@]2(C)C(c3ccoc3)OC(=O)C3OC321 (stereo partly specified)', 'inactive'),
  ('Cc1cccc(-c2cc(=O)c3cc(C)ccc3o2)c1', 'inactive'),
  ('COc1ccc2[nH]c(=S)cc(C)c2c1', 'inactive'),
  ('COc1ccc(CCCOC(Cn2ccnc2)c2ccc(OC)cc2)cc1 (stereo unspecified)', 'inactive'),
  ('COc1ccccc1NC(=O)CSc1nc2sc3c(c2c(=O)n1-c1ccccc1)CCN(C)C3', 'inactive');

Could you please tell me the result logged for COc1ccc2[nH]c3c(C)c4cc[n+](C)cc4c(C)c3c2c1 in this assay? active

Request: Cc1ccc(OCCCC(=O)NC(C)c2ccccc2)c(C)c1 (stereo unspecified) inactive

Request: Clc1ccc(CSc2nnc3c(n2)[nH]c2ccccc23)cc1 inactive
